B1: library; numbered along this chain (parent)
chain: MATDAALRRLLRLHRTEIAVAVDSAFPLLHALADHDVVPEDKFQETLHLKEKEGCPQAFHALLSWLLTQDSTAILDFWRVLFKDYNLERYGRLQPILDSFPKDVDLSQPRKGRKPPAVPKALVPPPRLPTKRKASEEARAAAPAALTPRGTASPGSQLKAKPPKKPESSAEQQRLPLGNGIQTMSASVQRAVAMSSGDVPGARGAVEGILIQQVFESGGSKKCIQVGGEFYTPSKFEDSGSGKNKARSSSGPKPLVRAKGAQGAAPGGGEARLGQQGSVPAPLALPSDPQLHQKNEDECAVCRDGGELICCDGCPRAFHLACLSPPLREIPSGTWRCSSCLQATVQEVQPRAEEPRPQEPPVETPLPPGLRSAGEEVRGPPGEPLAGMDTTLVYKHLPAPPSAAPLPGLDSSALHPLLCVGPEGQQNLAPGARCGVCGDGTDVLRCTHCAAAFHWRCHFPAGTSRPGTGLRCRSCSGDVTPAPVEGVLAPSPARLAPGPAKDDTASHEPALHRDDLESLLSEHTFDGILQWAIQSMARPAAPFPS

Variants of: B1
measurement-description: AIRE transcriptional activation functional score (insulin promoter-GFP; nonsense median 0, synonymous median 1) (normalised score); higher = higher AIRE activity (more reporter activation)
cond: with insulin promoter-GFP reporter in HEK293
measured-property: AIRE transcriptional activation functional score

var: K131S
measured: 0.0229

var: S241T
measured: 1.11

var: K50G
measured: 1.42

var: V393P
measured: 0.254

var: S239C
measured: 1.16

Please go through the list and note AIRE transcriptional activation functional score for each variant.
1. E375A
2. A117L

[1.18, 1.13]

The measurements presented in this section are drawn from the supplement of paper PMC12667976.
